Reference source for all entries: patent US20230272055A1

# Kd listing for each entry below
MEASUREMENT TARGET: T1, Recombinant MBP-mutCALR Type 1 fusion protein (human)
T1 construct: custom made at Cepter; also called recombinant mutCALR protein
PROCEDURE TEXT: SPR, IgG captured, 1:1 fit, Exp. 2

BINDER | Kd, nM
anti-mutCALR antibody clone 51 (antibody, human IgG1, lambda, V domains shown, human IgG1) VH: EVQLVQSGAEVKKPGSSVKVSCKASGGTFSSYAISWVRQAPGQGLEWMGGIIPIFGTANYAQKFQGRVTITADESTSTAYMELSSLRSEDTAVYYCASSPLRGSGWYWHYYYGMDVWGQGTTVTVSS VL: SYELTQPPSVSVAPGKTARITCGGNKIGTKSVHWYQQKPGQAPVLVIYQDSKRPSGIPERFSGSNSGNTATLTISGTQAMDEADYYCQAWGSSTVVFGGGTKLTVLG | 0.823
anti-mutCALR antibody clone 32 (antibody, human IgG1, lambda, V domains shown, human IgG1) VH: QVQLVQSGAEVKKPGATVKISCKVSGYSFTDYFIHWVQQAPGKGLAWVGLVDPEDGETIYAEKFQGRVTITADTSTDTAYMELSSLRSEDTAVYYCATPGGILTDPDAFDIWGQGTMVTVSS VL: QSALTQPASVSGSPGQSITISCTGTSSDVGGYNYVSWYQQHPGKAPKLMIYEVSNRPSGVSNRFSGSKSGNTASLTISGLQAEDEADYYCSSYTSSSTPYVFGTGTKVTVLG | 1.71
anti-mutCALR antibody clone 186 (antibody, human IgG1, lambda, N297A, V domains shown, human IgG1 N297A variant of clone 17) VH: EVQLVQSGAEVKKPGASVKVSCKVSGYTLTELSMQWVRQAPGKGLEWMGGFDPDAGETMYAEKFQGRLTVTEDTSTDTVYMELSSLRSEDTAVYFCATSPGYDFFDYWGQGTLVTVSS VL: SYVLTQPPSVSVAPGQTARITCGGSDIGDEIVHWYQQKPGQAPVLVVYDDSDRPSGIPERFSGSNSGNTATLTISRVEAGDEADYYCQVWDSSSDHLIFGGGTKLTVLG | 2.86
anti-mutCALR antibody clone 131 (antibody, human IgG1, lambda, N297A, V domains shown, human IgG1 N297A variant of clone 15) VH: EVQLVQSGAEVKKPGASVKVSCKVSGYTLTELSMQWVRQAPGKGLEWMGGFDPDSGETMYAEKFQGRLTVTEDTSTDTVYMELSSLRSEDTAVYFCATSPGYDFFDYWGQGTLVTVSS VL: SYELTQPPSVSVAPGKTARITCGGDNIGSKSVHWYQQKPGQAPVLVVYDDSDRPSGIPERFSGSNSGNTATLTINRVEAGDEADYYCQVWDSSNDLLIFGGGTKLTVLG | 4.83
